Experiment: In vitro-in vivo extrapolation (IVIVE) to Css and administered equivalent dose (AED)
Parameters: species or system human
Conditions: scaled with HPGL 110 mill cells/g, Vl 1596 g
REPORTED_METRIC: CLint (µL/min)
Give your result in µL/min as a bare value.

Examples with answers:
# MOLECULE, UNIT, CLint
rows = [
    ("OCCC(F)(F)C(F)(F)C(F)(F)C(F)(F)F [4:2 Fluorotelomer alcohol]", "µL/min", 6620368),
    ("OCC(F)(F)C(F)(F)C(F)(F)CO [Hexafluoroamylene glycol]", "µL/min", 0),
    ("NS(=O)(=O)C(F)(F)C(F)(F)C(F)(F)C(F)(F)C(F)(F)C(F)(F)C(F)(F)C(F)(F)F [Perfluorooctanesulfonamide, reference compound]", "µL/min", 2094431),
    ("NC(=O)C(F)(F)C(F)(F)C(F)(F)C(F)(F)C(N)=O [Octafluoroadipamide]", "µL/min", 517902),
]

## Input Consider the molecule OCC(F)(F)C(F)(F)C(F)(F)C(F)(F)C(F)(F)C(F)(F)CO [1H,1H,8H,8H-Perfluorooctane-1,8-diol] and give its measured CLint.
## Output 3512253

## Input Consider the molecule O=S(=O)([O-])C(F)(F)C(F)(F)C(F)(F)C(F)(F)C(F)(F)C(F)(F)C(F)(F)C(F)(F)F.[K+] [Potassium perfluorooctanesulfonate, reference compound] and give its measured CLint.
## Output 317764

###

In this section, each of the molecules is paired with its reported Hep_Stab_Fail.
Test: Abiotic loss in negative controls of the hepatocyte clearance assay (cell-free media, metabolically inactivated hepatocytes)
Type: in vitro ADME
Conditions: flag for stability failure in hepatocyte clearance assay controls (1 or Fst = fail, 0 = pass)
Would you mind answering with just the numeric figure?

# MOLECULE, REPORTED_MEASUREMENT
data = [
    ("FC(F)C(F)(F)COCC1CO1 (stereo not drawn)", 1),
]

## Input Consider the molecule OCC(F)(F)C(F)(F)C(F)(F)C(F)(F)C(F)(F)C(F)F and give its measured Hep_Stab_Fail.
## Output 1

## Input Consider the molecule FC(F)(I)C(F)(F)C(F)(F)C(F)(F)C(F)(F)C(F)(F)I [1,6-Diiodoperfluorohexane] and give its measured Hep_Stab_Fail.
## Output 1

###

Assay: In vitro-in vivo extrapolation (IVIVE) to Css and administered equivalent dose (AED)
Design: species or system human
Conditions: administered equivalent dose from LOEC and Css
In this section, each of the compounds is paired with its reported log10 of AED.
The base-10 logarithm of AED, taken with AED in mg/kg/day, is what appears here.

Examples with answers:
# COMPOUND, REPORTED_MEASUREMENT
measured = [
    ("N.O=C(O)C(F)(F)C(F)(F)C(F)(F)C(F)(F)C(F)(F)C(F)(F)C(F)(F)F [Ammonium perfluorooctanoate (PFOA), Ammonium perfluorooctanoate, reference compound]", -2.54),
    ("OCC(F)(F)C(F)(F)C(F)(F)C(F)(F)C(F)(F)C(F)(F)CO", 1.19),
    ("OCC(F)(F)OC(F)(F)C(F)(F)OC(F)(F)CO", 1.21),
]

## Input Consider the compound OCCC(F)(F)C(F)(F)C(F)(F)C(F)(F)F and give its measured log10 of AED.
## Output 0.98

## Input Consider the compound NC(=O)C(F)(F)C(F)(F)C(F)(F)F [Heptafluorobutyramide] and give its measured log10 of AED.
## Output 2.00

## Input Consider the compound NS(=O)(=O)C(F)(F)C(F)(F)C(F)(F)C(F)(F)C(F)(F)C(F)(F)C(F)(F)C(F)(F)F [Perfluorooctanesulfonamide, reference compound] and give its measured log10 of AED.
## Output -0.50
